- Test system: off-target genomic sites
- assay.name: Off-target oligo insertion based assay in HEK293_Cas9 cells, dgRNAs and sgRNAs (Tables 23, 24)
- Assay type: cell-based, human
- condition.summary: Table 24; TTR sgRNAs in HekCas9 cells, insertion detection method
Strand notation (5' to 3'): a small letter for the sugar, then the base; units joined by * are phosphorothioate-linked, units joined directly phosphodiester-linked; [ ] holds rarer units or linkages, { } end groups; capitals alone tell only the bases. m = 2'-O-methyl; r = 2'-OH (RNA)
measure.name: # Sites (off-target integration sites detected)
One number for each entry.

-- ask Tell me the measured # Sites (off-target integration sites detected) of G000489: TTR sgRNA modified sequence, Human, SEQ ID No. 96; guide sequence of CR003344 (nucleic acid) guide: mU*mU*mU*rGrArCrCrArUrCrArGrArGrGrArCrArCrUrGrUrUrUrUrArGrAmGmCmUmAmGmAmAmAmUmAmGmCrArArGrUrUrArArArArUrArArGrGrCrUrArGrUrCrCrGrUrUrArUrCrAmAmCmUmUmGmAmAmAmAmAmGmUmGmGmCmAmCmCmGmAmGmUmCmGmGmUmGmCmU*mU*mU*mU , please.
-- reply 19
